Tested on: Saccharomyces cerevisiae BY4741 SeMeCo community
Experiment: mean cell size (pixel area) (pixels); higher = larger cells
Conditions: 10 µM; 24 h; SM minimal medium
Where a name gives a salt, the structure may show the parent alone.
compounds and their reported mean cell size
Answer as a number with no unit attached.

Solved entries:
                                   compound                               system_name        endpoint  recorded_result
0  COc1ccc2cc([C@H](C)C(=O)O)ccc2c1 [Naproxen Sodium]  Saccharomyces cerevisiae BY4741 SeMeCo community  mean cell size             12.8
1  COc1ccc2[nH]c([S+]([O-])Cc3ncc(C)c(OC)c3C)nc2c1 (stereo unspecified) [Omeprazole Sodium]  Saccharomyces cerevisiae BY4741 SeMeCo community  mean cell size             12.1

Lab note: need mean cell size with Saccharomyces cerevisiae BY4741 SeMeCo community for entry C=CCN1CCCC1CNC(=O)c1cc2nn[nH]c2cc1OC (stereo unspecified) [Alizapride HCl] , please look it up.
12.3

Lab note: need mean cell size with Saccharomyces cerevisiae BY4741 SeMeCo community for entry C[N+]1(C)[C@@H]2C[C@@H](OC(=O)C(O)(c3cccs3)c3cccs3)C[C@H]1[C@@H]1O[C@@H]12 [Tiotropium Bromide hydrate] , please look it up.
12.5

Lab note: need mean cell size with Saccharomyces cerevisiae BY4741 SeMeCo community for entry Cc1ccc(S(=O)(=O)NC(=O)NN2CC3CCCC3C2)cc1 (stereo unspecified) [Gliclazide] , please look it up.
12.6

Lab note: need mean cell size with Saccharomyces cerevisiae BY4741 SeMeCo community for entry C=CC1=C(C(=O)O)N2C(=O)[C@@H](NC(=O)/C(=N\O)c3csc(N)n3)[C@H]2SC1 [Cefdinir] , please look it up.
12.5
